# protein stability index annotations
Test system: Saccharomyces cerevisiae
experiment.description: protein stability index of tFT-peptide fusion (C-terminal peptide) (PSI (0-1 scale)); higher = more stable (slower turnover);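 note: PSI is a weighted mean of sequencing reads over stability bins, variants kept only with over 10 reads, mCherry proximal and sfGFP distal, peptide attached via GGGS linker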
settings: genetic background: cdc53-1; temperature: 37 C

Example cases with answers are listed next.
   residue_sequence    experimental_endpoint    val
0      YPVGAAFIRARA  protein stability index  0.501
1      CVFCRVAVGVDG  protein stability index  0.584
2      AGGGGRFWVCVG  protein stability index  0.735
3      KIVNNTKKNKCH  protein stability index  0.684
4      LGVVVGGVRGVG  protein stability index   0.49

Pending sequence:
Q: What protein stability index value was documented for this sequence, GSITFFKMVQSG ?
Ans: 0.748

====

Tested on: Saccharomyces cerevisiae
experiment.description: protein stability index of tFT-peptide fusion (C-terminal peptide) (PSI (0-1 scale)); higher = more stable (slower turnover)
settings: genetic background: wild type; temperature: 30 C
The threshold is inclusive: protein stability index of exactly 0.7 counts as True; values below receive False.

Worked cases, answers included:
>>> print(df.to_string())
   residue_sequence  label_class
0      LGCLVGVRFLGF        False
1      RKKDHKSIIQII        False
2      KLLGVLFVLFPG        False
3      SCPPSARLSNTC         True
4      TIETDIYAIARV        False
5      NPFCPILPFALL         True
6      GERRREKRKNSG         True
7      GRLVPVILLKLV        False

Q: Test whether the sequence PVWLSFHFFLCA records protein stability index of 0.7 or higher.
Ans: False

====

# protein stability index annotations
Test system: Saccharomyces cerevisiae
experiment.description: protein stability index of tFT-peptide fusion (C-terminal peptide) (PSI (0-1 scale)); higher = more stable (slower turnover)
settings: genetic background: wild type; temperature: 30 C
Lab note: jot down the number only; don't add units.

Example cases with answers are listed next.
In [3]: df
Out[3]:
   residue_sequence    val
0      PLPPPLDLPPRS  0.735
1      GEFSINDGSGWT  0.711
2      FGGGSWSMRWSW  0.639

Q: Which protein stability index is reported with Saccharomyces cerevisiae for this entry: IDSKSPTHPLHQ ?
Ans: 0.71

Q: Which protein stability index is reported with Saccharomyces cerevisiae for this entry: VLLMFFFRFSAL ?
Ans: 0.523

====

System: Saccharomyces cerevisiae
experiment.description: protein stability index of tFT-peptide fusion (C-terminal peptide) (PSI (0-1 scale)); higher = more stable (slower turnover)
settings: genetic background: cdc53-1; temperature: 37 C
# protein stability index annotations
Lab note: jot down the number only; don't add units.

>>> df
   residue_sequence    val
0      HNLIRKHAKESS  0.702
1      VLLMFFFRFSAL  0.717
2      SLSPVFVAVWFL  0.493
3      FFLFLVCLFFFS   0.36
4      LCIRHFRLLELL   0.72
5      FPPFALLLIIND   0.54
6      SRDSLLTLIPSC  0.733
7      FFAIFSLLLSFT  0.482
8      DILQITNIKQKR  0.741
9      SVMTFVFFISAF  0.397

Q: What protein stability index value was documented for this sequence, GTRAGNPDRQRS ?
Ans: 0.759

Q: What protein stability index value was documented for this sequence, LSVYFSLSLCVS ?
Ans: 0.451

Q: What protein stability index value was documented for this sequence, PPPPLFLIVLHL ?
Ans: 0.621

====

System: Saccharomyces cerevisiae
experiment.description: protein stability index of tFT-peptide fusion (C-terminal peptide) (PSI (0-1 scale)); higher = more stable (slower turnover)
settings: genetic background: das1 deletion; temperature: 30 C
# label = bin(measured protein stability index), where bins are 1: < 0.3; 2: ≥ 0.3 and < 0.5; 3: ≥ 0.5

Worked cases, answers included:
In [3]: df
Out[3]:
   residue_sequence  label_class
0      YFFFYFFLLFHL            2
1      LGLLIFQWARVL            2
2      RGYSAIWGCKMN            3

Q: Which class is correct for the following sequence? GSLPERPLRYVC
Ans: 3

Q: Which class is correct for the following sequence? LFTRSIRNLKSL
Ans: 3

Q: Which class is correct for the following sequence? MFTIYISFVFAF
Ans: 1

Q: Which class is correct for the following sequence? YFWWLWMSFWVG
Ans: 2

Q: Which class is correct for the following sequence? CSSIFSSSDCYA
Ans: 3

Q: Which class is correct for the following sequence? RSSGHLLDGRAF
Ans: 3

====

Tested on: Saccharomyces cerevisiae
experiment.description: protein stability index of tFT-peptide fusion (C-terminal peptide) (PSI (0-1 scale)); higher = more stable (slower turnover)
settings: genetic background: cdc53-1; temperature: 37 C
# label = bin(measured protein stability index), where bins are lower bin: < 0.4; middle bin: ≥ 0.4 and < 0.6; upper bin: ≥ 0.6

Worked cases, answers included:
In [3]: df
Out[3]:
   residue_sequence  label_class
0      YILIKEVLYAVC    lower bin
1      VCPWGYCSEWGF    upper bin
2      CLLSRYRVFFLG    upper bin
3      SSLLPLLAQLVG    upper bin
4      ASSFYVDLVLVS   middle bin
5      WVIWFFVAACLR    lower bin

Q: Which class is correct for the following sequence? LIAPSACNLFLF
Ans: upper bin

Q: Which class is correct for the following sequence? NENQIKVIMLLV
Ans: middle bin

Q: Which class is correct for the following sequence? YIFLLRFFFFFS
Ans: middle bin

Q: Which class is correct for the following sequence? KLALVYLLIRGL
Ans: middle bin

Q: Which class is correct for the following sequence? WSMSSPPLLLAS
Ans: lower bin

Q: Which class is correct for the following sequence? YGWGFLFILTLM
Ans: lower bin

====

Tested on: Saccharomyces cerevisiae
experiment.description: protein stability index of tFT-peptide fusion (C-terminal peptide) (PSI (0-1 scale)); higher = more stable (slower turnover)
settings: genetic background: cdc34-1; temperature: 37 C
experimental.endpoint: protein stability index
Lab note: jot down the number only; don't add units.

   residue_sequence    val
0      SLFSPPVLATPS  0.668
1      LLRFFPCFLGVN  0.653

Q: What protein stability index value was documented for this sequence, WGCIFWFFDVRV ?
Ans: 0.193

Q: What protein stability index value was documented for this sequence, SYGNGIPIRMLH ?
Ans: 0.656

Q: What protein stability index value was documented for this sequence, LQSYVSRLVRLS ?
Ans: 0.618

Q: What protein stability index value was documented for this sequence, LTCTSTPMACRV ?
Ans: 0.562

Q: What protein stability index value was documented for this sequence, RRRGIYARASVV ?
Ans: 0.636

====

# protein stability index annotations
Tested on: Saccharomyces cerevisiae
experiment.description: protein stability index of tFT-peptide fusion (C-terminal peptide) (PSI (0-1 scale)); higher = more stable (slower turnover)
settings: genetic background: das1 deletion; temperature: 30 C

Example cases with answers are listed next.
In [3]: df
Out[3]:
   residue_sequence             target_entity    experimental_endpoint    val
0      GGSHVWKFYRNF  Saccharomyces cerevisiae  protein stability index  0.662
1      FPFFVFRVWFGA  Saccharomyces cerevisiae  protein stability index  0.414
2      SPCFLDPPRLIS  Saccharomyces cerevisiae  protein stability index  0.681

Q: What protein stability index value was documented for this sequence, SRLVIGRWSVLV ?
Ans: 0.492

====

# protein stability index annotations
Test system: Saccharomyces cerevisiae
experiment.description: protein stability index of tFT-peptide fusion (C-terminal peptide) (PSI (0-1 scale)); higher = more stable (slower turnover)
settings: genetic background: doa10 deletion; temperature: 30 C

Example cases with answers are listed next.
In [3]: df
Out[3]:
   residue_sequence             target_entity    val
0      SSVCLYWCCLFV  Saccharomyces cerevisiae  0.407
1      CSRTRLHCFTAS  Saccharomyces cerevisiae  0.581

Q: What protein stability index value was documented for this sequence, GSITFFKMVQSG ?
Ans: 0.376

Q: What protein stability index value was documented for this sequence, ASICAFFCWFLV ?
Ans: 0.326

Q: What protein stability index value was documented for this sequence, LFFSFLFLATRC ?
Ans: 0.225

====

Test system: Saccharomyces cerevisiae
experiment.description: protein stability index of tFT-peptide fusion (C-terminal peptide) (PSI (0-1 scale)); higher = more stable (slower turnover)
settings: genetic background: wild type; temperature: 30 C
experimental.endpoint: protein stability index
Lab note: jot down the number only; don't add units.

Example cases with answers are listed next.
   residue_sequence    experimental_endpoint    val
0      AKRKEAGKPHAN  protein stability index  0.695
1      GGGGGGLLDVGV  protein stability index  0.685
2      CKGIGRGGGVVS  protein stability index  0.607
3      QQKKPIRKELRN  protein stability index  0.702
4      GEYYKRKMNGSK  protein stability index  0.718

Q: Which protein stability index is reported with Saccharomyces cerevisiae for this entry: VRRGGGHRWVVW ?
Ans: 0.705

Reference source for all entries: the supplement of paper PMC10724198
